I'd be grateful if you could share measured tissue uptake at 48 h for these entries.
assay: Biodistribution of ^111In-labeled peptides in B16-F1 melanoma-bearing mice; type: in vivo, mouse (B6D2F1); details: female, B6D2F1 (C57BL/6 × DBA/2F1 hybrids), mouse, skin, iv, total radioactivity; ^111In-labeled peptide, 185 kBq i.v., 48 h; mean ± SEM of three experiments, n = 5 animals each; read-out: Skin uptake
Non-standard residues stand in square brackets, D forms with d. Residues, ends and D or L forms follow the SMILES beside them. *: point of attachment. DOTA = O=C(O)CN1CCN(CC(=O)O)CCN(CC(=O)*)CCN(CC(=O)O)CC1; pY = N[C@@H](Cc1ccc(OP(=O)(O)O)cc1)C(=O)O; Nle = CCCC[C@H](N)C(=O)O
Expressed in %ID/g, but write only the number.

Per the records, this compound ( CCCC[C@H](NC(C)=O)C(=O)N[C@@H](CC(=O)O)C(=O)N[C@@H](Cc1c[nH]cn1)C(=O)N[C@H](Cc1ccccc1)C(=O)N[C@@H](CCCNC(=N)N)C(=O)N[C@@H](Cc1c[nH]c2ccccc12)C(=O)NCC(=O)N[C@@H](CCCCNC(=O)CN1CCN(CC(=O)O)CCN(CC(=O)O)CCN(CC(=O)O)CC1)C(=O)N[C@H](CC(=O)O)C(=O)N[C@H](CC(=O)O)C(=O)O [DOTA-NAP-D-Asp-D-Asp] (Ac-[Nle]DH[dF]RWGK(DOTA)[dD][dD]-OH) ) has tissue uptake at 48 h equal to 0.04

Memo: CCCC[C@H](NC(=O)[C@H](Cc1ccc(OP(=O)(O)O)cc1)NC(=O)CNC(=O)CN1CCN(CC(=O)O)CCN(CC(=O)O)CCN(CC(=O)O)CC1)C(=O)N[C@@H](CC(=O)O)C(=O)N[C@@H](Cc1c[nH]cn1)C(=O)N[C@H](Cc1ccccc1)C(=O)N[C@@H](CCCNC(=N)N)C(=O)N[C@@H](Cc1c[nH]c2ccccc12)C(N)=O [DOTA-Phospho-MSH2-9] ({DOTA}-G[pY][Nle]DH[dF]RW-NH2) , reported tissue uptake at 48 h: 0.08

* * *

Would you kindly list tissue uptake at 24 h for each of these compounds?
experiment: Biodistribution of ^111In-labeled peptides in B16-F1 melanoma-bearing mice; type: in vivo, mouse (B6D2F1); details: female, B6D2F1, mouse, small intestines, iv, total radioactivity; ^111In-labeled peptide, 185 kBq i.v., 24 h; mean ± SEM of three experiments, n = 5 animals each; read-out: Small intestines uptake
Non-standard residues stand in square brackets, D forms with d. Residues, ends and D or L forms follow the SMILES beside them. *: point of attachment. DOTA = O=C(O)CN1CCN(CC(=O)O)CCN(CC(=O)*)CCN(CC(=O)O)CC1; pY = N[C@@H](Cc1ccc(OP(=O)(O)O)cc1)C(=O)O; Nle = CCCC[C@H](N)C(=O)O
Just the number please, in %ID/g, no unit attached.

The compound identified as CCCC[C@H](NC(C)=O)C(=O)N[C@@H](CC(=O)O)C(=O)N[C@@H](Cc1c[nH]cn1)C(=O)N[C@H](Cc1ccccc1)C(=O)N[C@@H](CCCNC(=N)N)C(=O)N[C@@H](Cc1c[nH]c2ccccc12)C(=O)NCC(=O)N[C@@H](CCCCNC(=O)CN1CCN(CC(=O)O)CCN(CC(=O)O)CCN(CC(=O)O)CC1)C(=O)N[C@H](CC(=O)O)C(=O)N[C@H](CC(=O)O)C(=O)O [DOTA-NAP-D-Asp-D-Asp] (Ac-[Nle]DH[dF]RWGK(DOTA)[dD][dD]-OH) registered its tissue uptake at 24 h at 0.04

Form field tissue uptake at 24 h, entry CCCC[C@H](NC(C)=O)C(=O)N[C@@H](CC(=O)O)C(=O)N[C@@H](Cc1c[nH]cn1)C(=O)N[C@H](Cc1ccccc1)C(=O)N[C@@H](CCCNC(=N)N)C(=O)N[C@@H](Cc1c[nH]c2ccccc12)C(=O)NCC(=O)N[C@@H](CCCCNC(=O)CN1CCN(CC(=O)O)CCN(CC(=O)O)CCN(CC(=O)O)CC1)C(N)=O [DOTA-NAP-amide, reference compound] : 0.08

Given item CCCC[C@H](NC(=O)[C@H](Cc1ccc(OP(=O)(O)O)cc1)NC(=O)CNC(=O)CN1CCN(CC(=O)O)CCN(CC(=O)O)CCN(CC(=O)O)CC1)C(=O)N[C@@H](CC(=O)O)C(=O)N[C@@H](Cc1c[nH]cn1)C(=O)N[C@H](Cc1ccccc1)C(=O)N[C@@H](CCCNC(=N)N)C(=O)N[C@@H](Cc1c[nH]c2ccccc12)C(N)=O [DOTA-Phospho-MSH2-9] ({DOTA}-G[pY][Nle]DH[dF]RW-NH2) , the value recorded as its tissue uptake at 24 h is 0.06

Source of measurements: paper PMC5405074
